Every entry's value here was drawn from patent US20210069342A1.

Target: T1, BCMA-Fc, a recombinant protein where the extracellular domain of human BCMA protein is linked to human Fc (human, UniProt Q02223 1-54)
T1 construct: extracellular domain; Negative control in panning and ELISA; also called negative control-Fc
T1 sequence (looked up): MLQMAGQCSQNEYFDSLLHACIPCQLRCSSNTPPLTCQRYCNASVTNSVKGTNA
Assay: ELISA, wells coated with BCMA-Fc (negative control), monoclonal scFv supernatant, anti-HA HRP detection, OD (450-650nm)

binder | binding result
anti-ROR1 monoclonal phage antibody A2F3 (soluble scFv) (scFv, V domains shown, Tested as soluble scFv in culture supernatant, detected through an HA tag) VH: EVQLLESGGGLVQPGGSLRLSCAASGFTFSSYDMSWVRQAPGKGLEWVSWISPGGGSKYYADSVKGRFTISRDNSKNTLYLQMNSLRAEDTAVYYCARVNGRFDYWGQGTLVTVSS VL: QSVLTQPPSASGTPGQRVTISCSGSSSNIGNNNVSWYQQLPGTAPKLLIYADSHRPSGVPDRFSGSKSGTSASLAISGLRSEDEADYYCATWDYSLSGYVFGGGTKLTVLG | no binding
anti-ROR1 monoclonal phage antibody CC9 (soluble scFv) (scFv, V domains shown, Tested as soluble scFv in culture supernatant, detected through an HA tag) VH: EVQLLESGGGLVQPGGSLRLSCAASGFTFSSYDMSWVRQAPGKGLEWVSGISHGSGNKYYADSVKGRFTISRDNSKNTLYLQMNSLRAEDTAVYYCAKRLSLRRRPSYYSDNAMDVWGQGTLVTVSS VL: QSVLTQPPSASGTPGQRVTISCTGSSSNIGNNAVNWYQQLPGTAPKLLIYYDSNRPSGVPDRFSGSKSGTSASLAISGLRSEDEADYYCGAWDDSLSGYVFGGGTKLTVLG | no binding
anti-ROR1 monoclonal phage antibody C2E3 (soluble scFv) (scFv, V domains shown, Tested as soluble scFv in culture supernatant, detected through an HA tag) VH: EVQLLESGGGLVQPGGSLRLSCAASGFTFSNYAMSWVRQAPGKGLEWVSSISHNSGSTYYADSVKGRFTISRDNSKNTLYLQMNSLRAEDTAVYYCAKFISARKSLGRSYSNGMDVWGQGTLVTVSS VL: QSVLTQPPSASGTPGQRVTISCTGSSSNIGSNDVTWYQQLPGTAPKLLIYADSKRPSGVPDRFSGSKSGTSASLAISGLRSEDEADYYCGTWDYSLSGYVFGGGTKLTVLG | no binding
